# ASSAY TARGET: 重组猴痘病毒表面蛋白B6R-His (monkeypox virus, UniProt P0DTN2 20-279)
// Kd lookup, one value per entry

Worked cases, answers included:
BINDER | Kd
抗体B019 (antibody, V domains shown) VH: QVQLLESGGTLVQPGGSLRLSCAASGFSFRTHDMNWVRQAPGKGLEWVSHISSTGSTIYYADSVKGRFTISRDNAKNSLYLQMNSLRADDTAVYYCARDRFTIFGVGPPFYYMDVWGQGTLVTVSS VL: DIQLTQSPSSLSASVGDRVTITCRASQGISSYLAWYQQKPGKAPKLLIYAASTLQSGVPSRFSGSGSGTDFTLTISSLQPEDFATYYCQQSYSTPRTFGQGTKVEIKR | < 1 nM
抗体B089 (antibody, V domains shown) VH: EVQLLESGGGVVQPGRSLRLSCAASGFTFSSYAMHWVRQAPGKGLEWVAVISYDGSNKYYADSVKGRFTISRDNSKNTLYLQMNSLRAEDTAVYYCARFSGAYSYGYGVYWGQGTPVTVSS VL: DIQLTQSPSFLSASVGDNVTITCRASQGIASRLAWYQQKPGKAPNLLISSSSTLQSGVPSRFTGSGYGTEFTLTMNTLQPEDSATYYCQQLNSYPLTFGGGTKVEIKR | < 1 nM
抗体B010 (antibody, V domains shown) VH: QVQLLDSGGGLVQPGGSLRLSCAASGFTFSSYAMHWVRQAPGKGLEWVAVISYDGSNKYYADSVKGRFTISRDNSKNTLYLQMNSLRAEDTAVYYCAQGWFDYWGQGTTVTVSS VL: NIQMTQSPSTLSASVGDRVTITCRASQSIGPWLAWYQQKPGKAPKLLIYKASSLESGVPSRFSGSGSGTEFTLTISSLQPEDFATYHCQQYKSYPYSFGQGTKVDIKR | < 1 nM
抗体B083 (antibody, V domains shown) VH: EVQLLESGGGVVRPGGSLRLSCAASGFTFGDYGMSWVRQAPGKGLEWVSGINWNGGSTGYADSVKGRFTISRDNAKNSLYLQMNSLRVEDSGVYYCARYGRVPDNWGQGTMVTVSS VL: NIQLTQSPSSLSASVGDRVTITCRASQGVNNWLAWYQQKPGKAPKLLIYAASTLESGVPSRFSGSGSATDFTLTINGLQPEDFATYYCQQAKRFPWTFGQGTKVEIKR | < 1 nM
抗体B026 (antibody, V domains shown) VH: EVQLLESGGGVVQPGNSLRLSCAASGFTFSSYNMNWVRQAPGKGLEWVSSISSRSSYIYYADSVKGRFTISRDNAKNTLYLQMSSLRSEDTAVYFCVRRNGAFDIWGQGTMVTVSS VL: DIQMTQSPSSLSASVGDRVTITCRASQSITTYLNWYQQKPGKAPKLLIYAASSLQSGVPSRFSGSGSGTDFTLTISSLQPEDFATYYCQQSYGIPRTFGQGTKVEIKR | < 1 nM

For the next question, use this binder.
Need Kd, item 抗体B161 (antibody, V domains shown) VH: QVQLLESGGGLVKPGGSLRLSCAASGFTFSSYSMSWVRQAPGKGLEWVSSISGGSDYIYYADPVRGRFTISRDNAKNSVYLQMNSLRAEDTAVYYCGRGITGIFNWGQGTPVTVSS VL: DIQLTQSPSSLSASVGDRVTITCRASQSINNYLNWYQQKPGKAPKVLIYAASSLPRGVPSRFSGSGSGTDFTLTISSLQPEDFASYYCQQSYTSPLTFGQGTKVEVKR < 1 nM

Origin of values: patent CN117683122A
